Here, each record is paired with measured EC50 data.
Molecular target: tauK18 (Homo sapiens)
Construct: under in vitro conditions using a purified tauK18 fragment; 6xHis; made in house; host or cells: E. coli BL21 (DE3)
Sequence (P10636 561-685 limits assumed): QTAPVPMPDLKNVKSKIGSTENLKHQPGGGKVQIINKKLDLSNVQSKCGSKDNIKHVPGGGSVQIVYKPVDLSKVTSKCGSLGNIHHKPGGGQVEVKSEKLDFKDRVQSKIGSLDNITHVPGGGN
Experiment: In vitro tau aggregation assay (thioflavin S)
Type: biochemical
Conditions: tauK18 with heparin and DTT, 5 days; read-out: EC50, inhibition of tau aggregation (ThS)
Give the number; nM is assumed, so skip it.

stdin: Quick check: EC50 of CN(C)c1ccc2c(c1)Sc1cc(N(C)C)ccc1N2.CS(=O)(=O)O.CS(=O)(=O)O [LMTM, leucomethylene blue mesylate] ?
stdout: 1900

Please find the next compound below.
stdin: Quick check: EC50 of C[C@@H]1CC(=O)NN=C1c1ccc(NN=C(C#N)C#N)cc1 [Levosimendan] ?
stdout: 2600
